Cited source for all entries: paper PMC6597265

Reported Ki values are given for each entry in this list.
# SYSTEM: recombinant rat homomeric GluK3 (Rattus norvegicus, UniProt P42264)
# Sequence (P42264 32-919): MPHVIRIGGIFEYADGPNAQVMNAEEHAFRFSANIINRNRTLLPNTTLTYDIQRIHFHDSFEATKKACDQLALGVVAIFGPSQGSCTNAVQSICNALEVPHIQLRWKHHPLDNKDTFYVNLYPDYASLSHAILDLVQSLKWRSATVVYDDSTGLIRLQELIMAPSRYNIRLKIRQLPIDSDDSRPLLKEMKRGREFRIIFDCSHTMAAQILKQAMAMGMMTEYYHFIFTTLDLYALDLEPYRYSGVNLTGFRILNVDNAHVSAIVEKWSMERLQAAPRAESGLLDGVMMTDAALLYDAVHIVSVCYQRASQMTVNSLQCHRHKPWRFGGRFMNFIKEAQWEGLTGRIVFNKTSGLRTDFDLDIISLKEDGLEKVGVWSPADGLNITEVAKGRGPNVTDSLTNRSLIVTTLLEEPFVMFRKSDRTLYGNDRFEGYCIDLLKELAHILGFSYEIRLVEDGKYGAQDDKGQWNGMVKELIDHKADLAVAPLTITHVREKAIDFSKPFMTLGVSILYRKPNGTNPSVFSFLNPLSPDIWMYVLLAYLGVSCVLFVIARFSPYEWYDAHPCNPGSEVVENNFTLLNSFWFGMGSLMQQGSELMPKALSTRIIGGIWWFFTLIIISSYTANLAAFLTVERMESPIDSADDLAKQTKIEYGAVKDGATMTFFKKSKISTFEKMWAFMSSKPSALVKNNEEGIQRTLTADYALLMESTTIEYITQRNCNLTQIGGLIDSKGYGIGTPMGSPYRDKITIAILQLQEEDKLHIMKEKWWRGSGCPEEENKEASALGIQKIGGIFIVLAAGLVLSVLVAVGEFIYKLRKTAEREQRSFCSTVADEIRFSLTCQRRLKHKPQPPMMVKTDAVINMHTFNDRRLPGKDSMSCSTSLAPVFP
# METHOD: Binding affinity at cloned homomeric GluK3 expressed in sf9 cells, [3H]-KA
ASSAY READOUT: Ki (µM)

* COC(C(=O)O)[C@@H]1CCN[C@H]1C(=O)O.Cl (relative stereo) [3j-d1] | 82
* Cl.Cl.NC(C(=O)O)[C@@H]1CCN[C@H]1C(=O)O (relative stereo) | 33
* CC[C@H](C(=O)O)[C@H]1CCN[C@@H]1C(=O)O.Cl | 11
* CC[C@@H](C(=O)O)[C@H]1CCN[C@@H]1C(=O)O.Cl | 6.3

----------
// reported Ki for each item listed
# SYSTEM: recombinant rat homomeric GluK3 (Rattus norvegicus)
# METHOD: Binding affinity at cloned homomeric GluK3 expressed in sf9 cells, [3H]-KA
# TEST CONTEXT: Ki GluK3, cloned homomeric receptor; mean ± SEM, at least three experiments
ASSAY READOUT: Ki

• CC(C)C(C(=O)O)[C@@H]1CCN[C@H]1C(=O)O.Cl (relative stereo) [3f] = > 100 µM
• Cl.O=C(O)CCC(C(=O)O)[C@@H]1CCN[C@H]1C(=O)O (relative stereo) [3m] = > 100 µM
• Cl.O=C(O)C(CCCO)[C@@H]1CCN[C@H]1C(=O)O (relative stereo) [3o] = > 100 µM

----------
# SYSTEM: recombinant rat homomeric GluK3 (Rattus norvegicus)
# METHOD: Binding affinity at cloned homomeric GluK3 expressed in sf9 cells, [3H]-KA
# TEST CONTEXT: ratio of Ki values at cloned homomeric receptors
ASSAY READOUT: GluK1/K3 (GluK1/GluK3 Ki selectivity ratio)

• O=C([O-])C(CCO)[C@@H]1CCN[C@H]1C(=O)[O-].[Na+].[Na+] (relative stereo) [3n] = >2
• CC[C@@H](C(=O)O)[C@H]1CCN[C@@H]1C(=O)O.Cl [3c-s2] = 7
• Cl.Cl.NC(C(=O)O)[C@@H]1CCN[C@H]1C(=O)O (relative stereo) [3k] = >3
